TARGET_SYSTEM: BRD3 (Homo sapiens, UniProt Q15059)
Construct: 45 nM His-Brd3(20-477) or 45 nM His-Brd4(44-477)
Sequence (Q15059 20-477): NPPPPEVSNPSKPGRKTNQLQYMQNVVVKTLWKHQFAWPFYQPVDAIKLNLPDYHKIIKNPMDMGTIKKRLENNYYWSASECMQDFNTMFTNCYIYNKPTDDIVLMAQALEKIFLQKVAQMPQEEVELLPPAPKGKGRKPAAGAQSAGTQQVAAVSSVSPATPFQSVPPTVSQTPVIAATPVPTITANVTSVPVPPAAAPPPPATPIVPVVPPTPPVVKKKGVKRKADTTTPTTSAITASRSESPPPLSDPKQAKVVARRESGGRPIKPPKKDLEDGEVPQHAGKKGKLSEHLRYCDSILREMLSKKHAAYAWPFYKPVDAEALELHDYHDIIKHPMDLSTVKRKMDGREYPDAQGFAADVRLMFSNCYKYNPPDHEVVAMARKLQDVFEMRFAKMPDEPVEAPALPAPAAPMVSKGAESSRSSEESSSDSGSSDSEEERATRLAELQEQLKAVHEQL
ASSAY_NAME: TR-FRET in-vitro binding assay for BRD3
CONDITION_LABEL: Biochemical IC50 values, His-Brd3(20-477)
PROPERTY_MEASURED: IC50

COMPOUND	PROPERTY_MEASURED	ASSAY_VALUE
Cc1nn(C2CC2)c2c1C(c1ccc(Cl)cc1)N(c1cc(C)c(=O)n(C)c1)C2=O (racemic)	IC50	0.074 µM
Cc1nn(C2CC2)c2c1[C@H](c1ccc(Cl)cc1)N(c1cc(C)c3nnc(C)n3c1)C2=O	IC50	> 37 µM
Cc1nn(C2CC2)c2c1[C@H](c1ccc(Cl)cc1)N(c1cc(Cl)c(=O)n(C)c1)C2=O	IC50	> 6.7 µM

Need IC50 of Cc1cc(N2C(=O)c3nn(C4CC4)c(C)c3[C@@H]2c2ccc(Cl)cc2)cn(C)c1=O , thanks. > 6.7 µM

###

Tested on: MV-4-11 cells
PROPERTY_MEASURED: GI50 (nM)

COMPOUND	MEASUREMENT_UNIT	ASSAY_VALUE
Cc1nn(C(C)C)c2c1[C@@H](c1ccc(Cl)cc1F)N(c1cc(C)c3nnc(C)n3c1)C2=O	nM	14.1
Cc1nn(C2CC2)c2c1[C@@H](c1ccc(Cl)cc1)N(c1cc(C)c3nnc(C)n3n1)C2=O	nM	3.41
CNC(=O)n1nc2c(c1C)C(c1ccc(Cl)cc1)N(c1cc(C)c3nnc(C)n3c1)C2=O (centres unmarked)	nM	39.2
COc1nccc(-n2nc(C)c3c2C(=O)N(c2cc(C)c(=O)n(C)c2)C3c2ccc(Cl)cc2)n1 (centres unmarked)	nM	220
Cc1nn(C2CC2)c2c1C(c1ccc(F)cc1F)N(c1cc(C)c3nnc(C)n3c1)C2=O (centres unmarked)	nM	30.3

(A) Cc1nn(-c2ccnn2C)c2c1C(c1ccc(Cl)cc1)N(c1cc(C)c3nnc(C)n3c1)C2=O (centres unmarked)
(B) Cc1cc(N2C(=O)c3n[nH]cc3C2c2ccc(Cl)cc2)cn(C)c1=O (centres unmarked)
Hi team, can someone confirm which has the larger GI50: A or B ? Thanks. Choose, then provide that item's label. B
(B: 204 nM, A: 25.5 nM)

###

System: MV-4-11 cells
PROPERTY_MEASURED: GI50 (nM)

Some molecules with known GI50 results, for comparison:
MOLECULE	TARGET_SYSTEM	MEASUREMENT_UNIT	GI50
CNC(=O)n1nc2c(c1C)C(c1ccc(Cl)cc1)N(c1cc(C)c(=O)n(C)c1)C2=O (stereo not shown)	MV-4-11 cells	nM	59.8
Cc1n[nH]c2c1[C@@H](c1ccc(Cl)cc1)N(c1cc(C)c3nnc(C)n3c1)C2=O	MV-4-11 cells	nM	21.7
COc1ncc(-n2nc3c(c2C(C)C)C(c2ccc(Cl)cc2)N(c2cc(C)c4onc(C)c4c2)C3=O)c(OC)n1 (stereo not shown)	MV-4-11 cells	nM	115
COc1ncc(-n2nc3c(c2C(C)C)[C@H](c2ccc(Cl)cc2)N(c2cc(C)c4onc(C)c4c2)C3=O)c(OC)n1	MV-4-11 cells	nM	948
CNC(=O)n1nc(C)c2c1C(=O)N(c1cc(C)c3nnc(C)n3c1)C2c1ccc(Cl)cc1 (stereo not shown)	MV-4-11 cells	nM	49.9

(A) Cc1nn(C2CNC2)c2c1C(c1ccc(Cl)cc1)N(c1cc(C)c(=O)n(C)c1)C2=O (stereo not shown)
(B) Cc1nn(C2CC2)c2c1C(c1ccc(Cl)cc1)N(c1cn(C)c(=O)c3[nH]ccc13)C2=O (stereo not shown)
Which of these two has the smaller recorded GI50: A or B ? Choose, then provide that item's label. B
(B: 66.2 nM, A: 251 nM)

###

Test system: K-562 cells
ASSAY_NAME: Cell growth inhibition assay (CellTiter-Glo), K-562
Type: cell-based, human
CONDITION_LABEL: Homo sapiens, K562
PROPERTY_MEASURED: GI50 (nM)

Some molecules with known GI50 results, for comparison:
MOLECULE	MEASUREMENT_UNIT	ASSAY_VALUE
Cc1nn(-c2ccnn2C)c2c1C(c1ccc(Cl)cc1)N(c1cc(C)c3nnc(C)n3n1)C2=O (stereo not drawn)	nM	187
Cc1cc(N2C(=O)c3nn(C4CN(C)C4)c(C)c3C2c2ccc(Cl)cc2)cn(C)c1=O (stereo not drawn)	nM	591
Cc1cc(N2C(=O)c3c(c(C4CC4)nn3C)[C@H]2c2ccc(Cl)cc2)cn2c(C)nnc12	nM	98.2
CCn1nc2c(c1C)C(c1ccc(F)cc1F)N(c1cc(C)c3nnc(C)n3c1)C2=O (stereo not drawn)	nM	280
Cc1c2c(nn1C1CC1)C(=O)N(c1cc(Cl)c(=O)n(C)c1)[C@@H]2c1ccc(Cl)cc1	nM	242

(a) Cc1cc(N2C(=O)c3nn(C(=O)N(C)C)c(C)c3[C@H]2c2ccc(Cl)cc2)cn2c(C)nnc12
(b) Cc1cc(N2C(=O)c3nn(C4CC4)c(C)c3[C@H]2c2ccc(Cl)cc2)cn(C)c1=O
(c) Cc1nn(C2CC2)c2c1[C@@H](c1ccc(Cl)cc1)N(c1cc(C)c3nnc(C)n3c1)C2=O
(d) Cn1cc(N2C(=O)c3c(cnn3C3CC3)C2c2ccc(Cl)cc2)cc(Cl)c1=O (stereo not drawn)
Would you mind ranking these molecules by ascending GI50? Field: ranking. Enter the labels in the order requested. c, b, a, d
(c: 62 nM, b: 266 nM, a: 406 nM, d: 905 nM)

(1) Cc1nn(C2CC2)c2c1[C@@H](c1ccc(Cl)cc1)N(c1cc(Cl)c(=O)n(C)c1)C2=O
(2) COCc1nn(C2CC2)c2c1[C@@H](c1ccc(Cl)cc1)N(c1cc(C)c3nnc(C)n3c1)C2=O
Hi team, can someone confirm which has the larger GI50: 1 or 2 ? Thanks. Choose, then provide that item's label. 1

###

// GI50 collected for MV-4-11 cells
PROPERTY_MEASURED: GI50 (nM)

COMPOUND	ASSAY_VALUE
Cc1cc(N2C(=O)c3c(c(CO)nn3C3CC3)[C@H]2c2ccc(Cl)cc2)cn2c(C)nnc12	9.38

(I) COCc1nn(C2CC2)c2c1C(c1ccc(Cl)cc1)N(c1cc(C)c3nnc(C)n3c1)C2=O (stereo not drawn)
(II) COc1ncc(-n2nc3c(c2C(C)C)C(c2ccc(Cl)cc2)N(c2ccc4onc(C)c4c2)C3=O)c(OC)n1 (stereo not drawn)
Hi team, can someone confirm which has the larger GI50: I or II ? Thanks. Choose, then provide that item's label. II
(II: 458 nM, I: 16.1 nM)

(1) Cc1nn(C(C)C)c2c1C(c1ccc(Cl)cc1)N(c1cc(C)c(=O)n(C)c1)C2=O (stereo not drawn)
(2) Cc1nn(C2CC2)c2c1[C@H](c1ccc(Cl)cc1)N(c1cc(C)c3nnc(C)n3c1)C2=O
Which of these two has the smaller recorded GI50: 1 or 2 ? Choose, then provide that item's label. 1

###

System: K-562 cells
PROPERTY_MEASURED: GI50 (nM)

MOLECULE	ASSAY_VALUE
COc1ncc(-n2nc(C)c3c2C(=O)N(c2cc(C)c(=O)n(C)c2)[C@@H]3c2ccc(Cl)cc2)c(OC)n1 [Example 100]	264
Cc1nn(C2CC2)c2c1C(c1ccc(C(F)(F)F)cc1)N(c1cc(C)c(=O)n(C)c1)C2=O (stereo not shown) [Example 97]	684
COCc1nn(C2CC2)c2c1C(c1ccc(Cl)cc1)N(c1cc(C)c3nnc(C)n3c1)C2=O (stereo not shown) [Example 130]	195

(P) COc1ncccc1-n1nc(C)c2c1C(=O)N(c1cc(Cl)c(=O)n(C)c1)C2c1ccc(Cl)cc1 (stereo not shown) [Example 72]
(Q) Cc1nn(C2CC2)c2c1C(c1ccc(Cl)cc1F)N(c1cc(C)c(=O)n(C)c1)C2=O (stereo not shown) [Example 179]
(R) Cc1cc(N2C(=O)c3c(c(CO)nn3C3CC3)[C@H]2c2ccc(Cl)cc2)cn2c(C)nnc12 [Example 166]
(S) Cc1cc(N2C(=O)c3nn(C(=O)N(C)C)c(C)c3C2c2ccc(Cl)cc2)cn(C)c1=O (stereo not shown) [Example 141]
Place the items in sequence of falling GI50. Field: ranking. Enter the labels in the order requested. S, P, Q, R
(S: 1190 nM, P: 766 nM, Q: 372 nM, R: 94.6 nM)

###

// GI50 collected for MV-4-11 cells
PROPERTY_MEASURED: GI50 (nM)

Some molecules with known GI50 results, for comparison:
MOLECULE	GI50 (nM)
Cc1nn(-c2ccnn2C)c2c1C(c1ccc(Cl)cc1)N(c1cc(C)c3nnc(C)n3n1)C2=O (stereo not shown) [Example 114]	20.4
Cc1nn(C(C)C)c2c1[C@H](c1ccc(Cl)cc1)N(c1cc(C)c(=O)n(C)c1)C2=O [Example 103]	3590
Cc1nn(-c2ccnn2C)c2c1[C@H](c1ccc(Cl)cc1)N(c1cc(C)c(=O)n(C)c1)C2=O [Example 121]	830
CCc1c2c(nn1C(=O)N(C)C)C(=O)N(c1cc(C)c(=O)n(C)c1)C2c1ccc(Cl)cc1 (stereo not shown) [Example 148]	81.7
COc1ncccc1-n1nc(C)c2c1C(=O)N(c1cc(C)c3nnc(C)n3n1)C2c1ccc(Cl)cc1 (stereo not shown) [Example 111]	16.2

(P) Cc1nn(C(=O)N(C)C)c2c1[C@@H](c1ccc(Cl)cc1)N(c1cc(C)c3nnc(C)n3c1)C2=O [Example 149]
(Q) Cc1ncccc1-n1nc(C)c2c1C(=O)N(c1cc(C)c(=O)n(C)c1)C2c1ccc(Cl)cc1 (stereo not shown) [Example 82]
Hi team, can someone confirm which has the larger GI50: P or Q ? Thanks. Choose, then provide that item's label. Q

meta.source: patent US20160095843A1
